# Tested on: α7 integrin (LacZ reporter in α7+/LacZ myotubes)
# EXPERIMENT_NOTES: Myotube α7 integrin FDG assay (Burkin assay in myotubes, 96-well)
# Format: cell-based, mouse
# MEASUREMENT_CONTEXT: myotubes, 20 uM
QUANTITY_MEASURED: Burkin Assay in Myotubes, α7 integrin LacZ reporter signal relative to DMSO
Format: numeric value only, no unit, no commentary.

> print(dat)
                                     smiles  recorded.measurement
1  CC(=O)Nc1ccc(NC(=O)c2cc(=O)c3cc(C)cc(C)c3o2)cc1                0.6408
2        Cc1cc(C)nc(NC(=O)c2ccc(Cl)cc2Cl)n1                 1.073
3         O=C(O)CCCNC(=O)CCn1nnc2ccccc2c1=O                 1.057

// switching to the query compound
Prompt line: Need Burkin Assay in Myotubes, α7 integrin LacZ reporter signal relative to DMSO, item `Cc1cccc(Sc2nc(-c3ccccc3)ccc2C#N)c1`
Response line: 0.6582

====

# System: α7 integrin (LacZ reporter in α7βgal+/− myoblasts)
# EXPERIMENT_NOTES: Myoblast α7+/LacZ integrin FDG assay (Burkin assay in myoblasts, 96-well)
# Format: cell-based, mouse
# MEASUREMENT_CONTEXT: 20 uM; α7+/LacZ myoblasts, 96-well
hey, just use yes if measured Burkin Assay in Myoblasts, value relative to DMSO is less than 0.9, otherwise no

Prompt line: Would you kindly verify if Burkin Assay in Myoblasts, value relative to DMSO of `COc1ccc(-c2csc3ncnc(N4CCN(c5ccccc5[N+](=O)[O-])CC4)c23)cc1` is strictly less than 0.9?
Response line: no

====

Measured Burkin Assay in Myoblasts, value relative to DMSO of individual entries
# Tested on: α7 integrin (LacZ reporter in α7βgal+/− myoblasts)
# EXPERIMENT_NOTES: Myoblast α7+/LacZ integrin FDG assay (Burkin assay in myoblasts, 96-well)
# Format: cell-based, mouse
# MEASUREMENT_CONTEXT: 10 uM; SU9516 analogs, 96-well, N=3-6

> print(dat)
                                     smiles                                    system  recorded.measurement
1  CCn1c(O)c(C(C#N)=C2N=c3ccccc3=N2)c2ccccc21  α7 integrin (LacZ reporter in α7βgal+/− myoblasts)                0.8704
2           Cc1ccc(/C=C2\C(=O)Nc3ccccc32)o1  α7 integrin (LacZ reporter in α7βgal+/− myoblasts)                0.8176
3  O=C1Nc2ccccc2/C1=C\c1cccn1-c1ccc(OC(F)(F)F)cc1  α7 integrin (LacZ reporter in α7βgal+/− myoblasts)                 1.078

Prompt line: Param readout= Burkin Assay in Myoblasts, value relative to DMSO; system= α7 integrin (LacZ reporter in α7βgal+/− myoblasts); entry= `O=Nc1c(-c2c(O)[nH]c3ccccc23)[nH]c2ccccc12` ; returns value.
Response line: 0.319

Prompt line: Param readout= Burkin Assay in Myoblasts, value relative to DMSO; system= α7 integrin (LacZ reporter in α7βgal+/− myoblasts); entry= `CC(C)Oc1ccc(C(=O)/C=C2/C(=O)Nc3ccccc32)cc1` ; returns value.
Response line: 0.3235

====

# System: β-galactosidase in CMV-LacZ C2C12 myoblasts
# EXPERIMENT_NOTES: CMV-LacZ secondary screen in C2C12 myoblasts (β-Gal stabilizing assay)
# Type: cell-based, mouse
# MEASUREMENT_CONTEXT: 40 uM; CMV-LacZ C2C12 myoblasts
hey, just use Y if measured CMV-LACZ in Myoblasts (β-galactosidase activity relative to DMSO) is less than 0.7, otherwise N

> print(dat)
                                   compound                                    system  label.class
1             Cc1nnc(SCC(=O)c2ccc(Br)cc2)s1  β-galactosidase in CMV-LacZ C2C12 myoblasts            N
2  C#CC1(O)CCC2C3CCC4=C/C(=N/OCC(=O)NCC(=O)NC(C(=O)O)C(C)C)CC[C@]4(C)C3CC[C@@]21C (some centres unmarked)  β-galactosidase in CMV-LacZ C2C12 myoblasts            N
3  Cc1[nH]c2ccc(F)cc2c1CCN(Cc1ccco1)C(=S)NC(C)(C)C  β-galactosidase in CMV-LacZ C2C12 myoblasts            Y

Prompt line: Would you kindly verify if CMV-LACZ in Myoblasts (β-galactosidase activity relative to DMSO) of `O=C(Cn1nc(-c2ccc(Cl)cc2)ccc1=O)N1CCC2(CC1)OCCO2` is strictly less than 0.7?
Response line: N

Prompt line: Would you kindly verify if CMV-LACZ in Myoblasts (β-galactosidase activity relative to DMSO) of CC(NC(=O)c1ccc(C(C)(C)C)cc1)C(c1cccs1)N1CCOCC1 (centres unmarked) is strictly less than 0.7?
Response line: N

Prompt line: Would you kindly verify if CMV-LACZ in Myoblasts (β-galactosidase activity relative to DMSO) of Cl.O=C1C2CCCN2C(=O)N1CCCN1CCN(c2cccc(Br)c2)CC1 (centres unmarked) is strictly less than 0.7?
Response line: Y

Prompt line: Would you kindly verify if CMV-LACZ in Myoblasts (β-galactosidase activity relative to DMSO) of `c1ccc(-c2cn3c4c(sc3n2)CCCC4)cc1` is strictly less than 0.7?
Response line: N

Prompt line: Would you kindly verify if CMV-LACZ in Myoblasts (β-galactosidase activity relative to DMSO) of `Cc1ccccc1-n1c(Cc2cccs2)n[nH]c1=S` is strictly less than 0.7?
Response line: N

====

Measured Burkin Assay in Myotubes, α7 integrin LacZ reporter signal relative to DMSO of individual entries
# System: α7 integrin (LacZ reporter in α7+/LacZ myotubes)
# EXPERIMENT_NOTES: Myotube α7 integrin FDG assay (Burkin assay in myotubes, 96-well)
# Type: cell-based, mouse
# MEASUREMENT_CONTEXT: myotubes, 20 uM
Format: numeric value only, no unit, no commentary.

These solved cases illustrate the format of a correct answer.
> print(dat)
                                     smiles  recorded.measurement
1  Cc1ccc(NS(=O)(=O)c2ccc3c(c2)NC(=O)CCS3)c(Br)c1                0.9863
2           Cc1ccsc1-c1n[nH]c(=S)n1C1CCCCC1                 1.092
3  Cc1ccsc1CN(C)CC(=O)Nc1ccc([N+](=O)[O-])cc1Cl                0.8466
4             Br.COc1ccc(C(=O)CN2CCCCC2)cc1                0.6075

Prompt line: Need Burkin Assay in Myotubes, α7 integrin LacZ reporter signal relative to DMSO, item `O=C(N[C@@H](Cc1c[nH]c2ccccc12)C(=O)O)C1CCN(S(=O)(=O)c2cccs2)CC1`
Response line: 0.9799

Prompt line: Need Burkin Assay in Myotubes, α7 integrin LacZ reporter signal relative to DMSO, item `CCc1ccc(S(=O)(=O)NCCOc2cccc3cccnc23)cc1`
Response line: 1

Prompt line: Need Burkin Assay in Myotubes, α7 integrin LacZ reporter signal relative to DMSO, item `CC(C)CN(C(=O)c1cccc(Cl)c1)c1c(N)n(Cc2ccccc2)c(=O)[nH]c1=O`
Response line: 0.8526

Prompt line: Need Burkin Assay in Myotubes, α7 integrin LacZ reporter signal relative to DMSO, item `CCn1c(=O)c2cc(C(=O)N(C)c3cc(C)ccc3OC)sc2c2ccccc21`
Response line: 0.69

====

Measured Burkin Assay in Myoblasts, value relative to DMSO of individual entries
# Test system: α7 integrin (LacZ reporter in α7βgal+/− myoblasts)
# EXPERIMENT_NOTES: Myoblast α7+/LacZ integrin FDG assay (Burkin assay in myoblasts, 96-well)
# Type: cell-based, mouse
# MEASUREMENT_CONTEXT: 0.5 uM; α7+/LacZ myoblasts, 96-well
Format: numeric value only, no unit, no commentary.

> print(dat)
                                   compound                                    system  recorded.measurement
1  COc1ccccc1-c1coc2c(CN3C(C)CCCC3C)c(O)ccc2c1=O (stereo not shown)  α7 integrin (LacZ reporter in α7βgal+/− myoblasts)                 1.019
2  COC(=O)c1ccc(C2C(C(=O)c3cc4ccccc4o3)=C(O)C(=O)N2CCN2CCOCC2)cc1 (stereo not shown)  α7 integrin (LacZ reporter in α7βgal+/− myoblasts)                 1.026
3  O=S(=O)(NCC(c1ccco1)N1CCOCC1)c1ccc(Cl)cc1 (stereo not shown)  α7 integrin (LacZ reporter in α7βgal+/− myoblasts)                0.9899

Prompt line: Need Burkin Assay in Myoblasts, value relative to DMSO, item `C/C(=N\Nc1nncc2ccccc12)c1cccc(OC(F)F)c1`
Response line: 0.92

These entries and their values trace back to patent US9980943B2.
